Ref: patent US11702422B2

targetOrSystem: IL-17A(FLAG-Tagged): IL-17RA(His-Tagged) (Homo sapiens, UniProt Q16552, K93Q)
Sequence (Q16552 with tags, fused parts or gaps K93Q): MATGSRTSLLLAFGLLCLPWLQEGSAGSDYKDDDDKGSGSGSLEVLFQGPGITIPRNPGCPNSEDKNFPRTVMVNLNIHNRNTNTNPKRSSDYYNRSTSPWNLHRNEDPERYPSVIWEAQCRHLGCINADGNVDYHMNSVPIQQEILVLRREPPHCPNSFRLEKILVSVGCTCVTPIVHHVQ
measurementProtocol: IL-17A(FLAG-Tagged): IL-17RA(His-Tagged) Binding Disruption Eu-HTRF Assay
conditions: IL-17A/IL-17RA binding disruption, simple average if tested more than once
pIC50: −log10 of the molar value.
attributeMeasured: pIC50

1. Cc1nonc1C(=O)N[C@H](c1cn2ncc([C@H](NC(=O)CC3CC(F)(F)C3(F)F)C3CC3)cc2n1)C1CCC(F)(F)CC1 (single isomer, unassigned) [Example 324]    7.21
2. O=C(CCC(F)(F)F)N[C@@H](c1cnn2cc([C@@H](NC(=O)c3ccnn3C3CC3)C3CCC(F)(F)CC3)nc2c1)C1CC1    6.89
3. Cc1nonc1C(=O)N[C@H](c1cn2ncc([C@H](NC(=O)CC(C)C(F)(F)F)C3CC3)cc2n1)C1CCC(F)(F)CC1 (single isomer, unassigned)    7.05
4. CC(C)c1cncc(C(=O)N[C@H](c2cn3ncc([C@H](NC(=O)CCC(F)(F)F)C4CC4)cc3n2)C2CCC(F)(F)CC2)c1    7.14
5. CC(C)n1nccc1C(=O)N[C@H](c1cn2ncc([C@H](NC(=O)CC3CCC3)C3CC3)cc2n1)C1CCC(F)(F)CC1    7.05
6. O=C(CC1CC(F)(F)C1)NC(c1cnn2cc([C@@H](NC(=O)c3ccn(CCC(F)(F)F)n3)C3CCC(F)(F)CC3)nc2c1)C1CC1 (single isomer, unassigned)    6.80
7. CC(C)n1nccc1C(=O)N[C@H](c1cn2ncc([C@H](NC(=O)CC(C)(F)F)C3CC3)cc2n1)C1CCC(F)(F)CC1    6.89
8. CC(C)n1nccc1C(=O)N[C@H](c1cn2ncc(C(NC(=O)CCC(F)(F)F)C3CC3)cc2n1)C1CCC(F)(F)CC1 (single isomer, unassigned) [Example 14]    6.92
9. O=C(CC1CC(F)(F)C1)N[C@@H](c1cnn2cc([C@@H](NC(=O)c3nonc3C(O)C3CC3)C3CCC(F)(F)CC3)nc2c1)C1CC1 (single isomer, unassigned) [Example 401]    6.82

a = O=C(CCC(F)(F)F)N[C@@H](c1cnn2cc([C@@H](NC(=O)c3cncc(N4CCCC4=O)c3)C3CCC(F)(F)CC3)nc2c1)C1CC1
b = CCOc1conc1C(=O)N[C@H](c1cn2ncc([C@H](NC(=O)CCC(F)(F)F)C3CC3)cc2n1)C1CCC(F)(F)CC1
Which value of pIC50 is smaller, the one for a or the one for b ? # reply format: chosen label
a
